target: GABA A α5 (Homo sapiens, UniProt P18507+P31644); construct: membranes prepared from cell pellets; test: [3H]flumazenil competition binding, human GABA A α5β3γ2 receptors in HEK293 cell membranes; settings: human receptor α5β3γ2 transiently transfected in HEK293; 0.5 nM [3H]flumazenil; 1 hour at 4° C.; means of two determinations; read-out: hKi GABA A α5
quantity: Ki (nM)

>  <compound>
CCCCc1noc(C)c1COc1cc(C(=O)N[C@@H](C)CO)[nH]n1 (single isomer, unassigned) [Example 30]

>  <unit.of.measurement>
nM

>  <Ki>
25.2

$$$$
>  <compound>
Cn1nc(OCc2c(-c3ccc(Cl)cc3)noc2CO)cc1C(=O)NC1CCOC1 (racemic) [Example 110]

>  <unit.of.measurement>
nM

>  <Ki>
2.7

$$$$
>  <compound>
Cc1onc(-c2ccc(F)cn2)c1COc1cc(C(=O)NC(C)(C)C)[nH]n1 [Example 19]

>  <unit.of.measurement>
nM

>  <Ki>
17.8

$$$$

[1] Cc1onc(-c2ccc(F)cn2)c1COc1cc(C(=O)N[C@@H](C)CO)nn1C [Example 117]
[2] Cc1onc(-c2ccccn2)c1COc1cc(C(=O)NC(C)CO)nn1C (stereo in doubt) [Example 114]
[3] Cc1onc(-c2ccc(F)cc2)c1/C=C/c1cc(C(=O)N2CCS(=O)(=O)CC2)n(C)n1 [Example 127]
[4] CCCCc1noc(C)c1COc1cc(C(=O)NC2CCOCC2)[nH]n1 [Example 26]
[5] Cc1onc(-c2ccc(F)cc2)c1CNc1cc(C(=O)N2CC3(COC3)C2)n(C)n1 [Example 149]
In: Rank the 5 compounds: largest Ki first, smallest last. // list labels; follow requested order
Out: 5, 3, 2, 1, 4
(5: 67.5 nM, 3: 29.3 nM, 2: 16.2 nM, 1: 6.8 nM, 4: 2.3 nM)

###

target: GABA A α5 (Homo sapiens, UniProt P18507+P31644); construct: membranes prepared from cell pellets; test: [3H]flumazenil competition binding, human GABA A α5β3γ2 receptors in HEK293 cell membranes; settings: human receptor α5β3γ2 transiently transfected in HEK293; 0.5 nM [3H]flumazenil; 1 hour at 4° C.; means of two determinations; read-out: hKi GABA A α5
quantity: Ki (nM)

>  <compound>
Cc1onc(-c2ccc(F)cc2)c1CNc1cc(C(=O)NC(C)CO)n(C)n1 (stereo not drawn)

>  <system.name>
GABA A α5 (Homo sapiens, UniProt P18507+P31644)

>  <Ki [nM]>
26.2

$$$$
>  <compound>
Cc1onc(-c2ccc(F)cc2)c1COc1cc(C(=O)NCCO)n(C)n1

>  <system.name>
GABA A α5 (Homo sapiens, UniProt P18507+P31644)

>  <Ki [nM]>
7.1

$$$$
>  <compound>
Cc1onc(-c2ccc(F)cc2)c1COc1cc(C(=O)NC(C)C)[nH]n1

>  <system.name>
GABA A α5 (Homo sapiens, UniProt P18507+P31644)

>  <Ki [nM]>
2.3

$$$$

[P] Cc1onc(-c2ccc(F)cc2)c1CNc1cc(C(=O)NC(C)C)[nH]n1
[Q] CCCCc1noc(C)c1COc1cc(C(=O)NC2CCOCC2)n(C)n1
[R] Cc1onc(C2CCOCC2)c1COc1cc(C(=O)NC2CCOCC2)n(C)n1
[S] CCCCc1noc(C)c1COc1cc(C(=O)NN2CCOCC2)[nH]n1
[T] Cc1onc(-c2ccc(F)cc2)c1/C=C/c1cc(C(=O)NC2CCOCC2)n(C)n1
In: Rank the 5 compounds: largest Ki first, smallest last. // list labels; follow requested order
Out: R, P, Q, S, T
(R: 24.4 nM, P: 13 nM, Q: 8.7 nM, S: 5.8 nM, T: 0.4 nM)

[1] Cc1onc(-c2ccccc2)c1COc1cc(C(=O)NCCO)[nH]n1
[2] CCCCc1noc(C)c1COc1cc(C(=O)NC(CO)CO)[nH]n1
[3] Cc1onc(-c2ccc(F)cc2)c1/C=C/c1cc(C(N)=O)[nH]n1
[4] Cc1onc(-c2ccc(F)cc2)c1COc1cc(C(=O)NC2CCOCC2)[nH]n1
In: Rank the 4 compounds: largest Ki first, smallest last. // list labels; follow requested order
Out: 1, 2, 3, 4

###

molecular target: GABA A α5 (Homo sapiens, UniProt P18507+P31644); construct: membranes prepared from cell pellets; assay: [3H]flumazenil competition binding, human GABA A α5β3γ2 receptors in HEK293 cell membranes; details: human receptor α5β3γ2 transiently transfected in HEK293; 0.5 nM [3H]flumazenil; 1 hour at 4° C.; means of two determinations; read-out: hKi GABA A α5
quantity: Ki (nM)

Recorded Ki, per entry:
>  <compound>
Cc1onc(-c2ccccc2)c1COc1cc(C(=O)NN(C)C)n(C)n1 [Example 47]

>  <unit.of.measurement>
nM

>  <obs.value>
50.3

$$$$
>  <compound>
Cc1onc(-c2ccc(F)cc2)c1COc1cc(C(=O)NN2CCCCC2)n(C)n1 [Example 49]

>  <unit.of.measurement>
nM

>  <obs.value>
19.3

$$$$
>  <compound>
Cc1onc(-c2ccccn2)c1CNc1cc(C(=O)NN2CCOCC2)n(C)n1 [Example 161]

>  <unit.of.measurement>
nM

>  <obs.value>
19.4

$$$$
>  <compound>
Cn1nc(OCc2c(-c3ccc(Cl)cc3)noc2CO)cc1C(N)=O [Example 102]

>  <unit.of.measurement>
nM

>  <obs.value>
12.6

$$$$

[a] Cc1onc(-c2ccc(F)cc2)c1COc1cc(C(=O)N[C@H]2CCC[C@@H]2O)n(C)n1 [Example 73]
[b] Cc1onc(-c2ccc(F)cn2)c1COc1cc(C(=O)NC2CCOC2)n(C)n1 (racemic) [Example 81]
In: I'm curious, which of these has a smaller Ki number: a or b ? // caller expects the label of the chosen entry
Out: b
(b: 5.9 nM, a: 9.4 nM)

[I] Cc1onc(-c2ccc(F)cn2)c1COc1cc(C(=O)NCCO)n(C)n1 [Example 83]
[II] CCCCc1noc(C)c1COc1cc(C(=O)NCC(F)(F)F)[nH]n1 [Example 31]
In: Determine, for I and II , which has the greater value of Ki. // caller expects the label of the chosen entry
Out: I

###

target: GABA A α5 (Homo sapiens, UniProt P18507+P31644); construct: expressed in transfected cells; host or cells: HEK293 cells, transiently transfected; membranes prepared from cell pellets; assay: [3H]flumazenil competition binding, human GABA A α5β3γ2 receptors in HEK293 cell membranes; conditions: human receptor α5β3γ2 transiently transfected in HEK293; 0.5 nM [3H]flumazenil; 1 hour at 4° C.; means of two determinations; read-out: hKi GABA A α5
pKi: −log10 of the molar value.
quantity: pKi

Recorded pKi, per entry:
>  <compound>
Cc1onc(-c2ccc(F)cc2)c1/C=C/c1cc(C(=O)N2CC3(COC3)C2)n(C)n1

>  <pKi>
8.62

$$$$
>  <compound>
CCCCc1noc(C)c1COc1cc(C(=O)NCCO)n(C)n1

>  <pKi>
7.56

$$$$
>  <compound>
Cc1onc(-c2ccccc2)c1COc1cc(C(=O)N2CCOCC2)[nH]n1

>  <pKi>
7.38

$$$$

[P] Cc1onc(-c2ccccc2)c1COc1cc(C(=O)NC2CCOCC2)[nH]n1
[Q] Cn1nc(OCc2c(-c3ccc(Cl)cc3)noc2CO)cc1C(=O)NC1CC1
[R] CCCCc1noc(C)c1COc1cc(C(=O)NN2CCCCC2)[nH]n1
In: Rank the 3 compounds: largest pKi first, smallest last. // list labels; follow requested order
Out: P, Q, R

[A] Cc1onc(-c2ccc(F)cc2)c1COc1cc(C(=O)NN(C)C)[nH]n1
[B] CC(NC(=O)c1cc(OCc2c(-c3ccc(Cl)cc3)noc2CO)nn1C)C(F)(F)F (stereo in doubt)
[C] Cc1onc(-c2ccc(F)cc2)c1/C=C/c1cc(C(=O)NC(C)C)n(C)n1
[D] Cc1onc(-c2ccc(F)cc2)c1COc1cc(C(=O)NC(C)(C)CO)n(C)n1
In: # rank by pKi, ascending (min first) // list labels; follow requested order
Out: D, B, A, C

[1] Cc1onc(-c2ccc(F)cc2)c1CNc1cc(C(=O)NC2(C)COC2)n(C)n1
[2] Cc1onc(-c2ccc(F)cc2)c1COc1cc(C(=O)NC2CCOC2)n(C)n1 (racemic)
[3] Cc1onc(-c2ccccn2)c1COc1cc(C(=O)NC(C)C)n[nH]1
In: # rank by pKi, ascending (min first) // list labels; follow requested order
Out: 3, 1, 2
(3: 8.03, 1: 8.27, 2: 8.82)

[a] CCC(CO)NC(=O)c1cc(OCc2c(-c3ccc(F)cc3)noc2C)nn1C (single isomer, unassigned; (-)) [Example 69]
[b] Cc1onc(-c2ccccc2)c1COc1cc(C(=O)NC2CCOC2)[nH]n1 (racemic)
In: Determine, for a and b , which has the greater value of pKi. // caller expects the label of the chosen entry
Out: a
(a: 8.46, b: 8.18)

[1] Cc1onc(-c2ccc(F)cc2)c1COc1cc(C(=O)NN2CCCC2)[nH]n1
[2] Cc1onc(-c2ccccn2)c1COc1cc(C(=O)NC2CCOCC2)n(C)n1
[3] Cc1onc(-c2ccc(F)cc2)c1/C=C/c1cc(C(=O)NCC(F)(F)F)n(C)n1
[4] Cc1onc(-c2ccc(F)cc2)c1/C=C/c1cc(C(=O)N2CCOCC2)[nH]n1
[5] Cc1onc(-c2ccc(F)cc2)c1COc1cc(C(=O)N2CC(O)C2)n(C)n1
In: # rank by pKi, ascending (min first) // list labels; follow requested order
Out: 4, 5, 2, 1, 3

[1] Cc1onc(-c2ccc(F)cn2)c1COc1cc(C(=O)NC2CCOC2)[nH]n1 (racemic)
[2] Cc1onc(-c2ccc(F)cc2)c1CNc1cc(C(=O)NCC(C)(C)O)[nH]n1
In: I'm curious, which of these has a smaller pKi number: 1 or 2 ? // caller expects the label of the chosen entry
Out: 2
(2: 7.68, 1: 8.92)

[1] Cc1onc(-c2ccc(F)cn2)c1COc1cc(C(=O)NCC(F)(F)F)[nH]n1
[2] Cc1onc(-c2ccc(F)cc2)c1COc1cc(C(=O)NCC(O)C(F)(F)F)n(C)n1 (single isomer, unassigned; (+)) [Example 67]
[3] Cc1onc(-c2ccc(F)cc2)c1COc1cc(C(=O)N2CC3(COC3)C2)n(C)n1
[4] Cc1onc(-c2ccc(F)cc2)c1COc1cc(C(=O)Nc2ccn(C)n2)n(C)n1
In: # rank by pKi, ascending (min first) // list labels; follow requested order
Out: 3, 4, 2, 1

[I] Cc1onc(-c2ccccc2)c1COc1cc(C(=O)NC2CCOCC2)n(C)n1
[II] Cc1onc(-c2ccc(F)cc2)c1COc1cc(C(=O)NC2CCOCC2)n(C)n1
[III] Cc1onc(-c2ccccc2)c1/C=C\c1cc(C(=O)NC(C)C)[nH]n1
[IV] Cc1onc(-c2ccc(F)cn2)c1CNc1cc(C(=O)NC2CC2)n(C)n1
In: # rank by pKi, ascending (min first) // list labels; follow requested order
Out: IV, III, I, II
(IV: 7.39, III: 7.69, I: 8.51, II: 8.92)
